METHOD_DESCRIPTION: AUC (0 to t) in Wistar rat at 10 mg/kg, po by LC-MS/MS analysis
Assay type: ADME, organism-based
MEASUREMENT_SETUP: in vivo
PROPERTY_LABEL: AUC(0-t) (ng·h/mL)
Return type: number; implicit unit ng·h/mL.

The measured AUC(0-t) associated with "Cl.N#C/C(=C\c1cccc2cnccc12)c1c[nH]c2ccccc12" reads 1690

* * *

Tested on: hTERT-BJ
METHOD_DESCRIPTION: Inhibition of mitotic progression in human hTERT-BJ cells transformed with hTert, small t, shRNAs against p53 and pRb and H-RasV12-ER assessed as increase in phosphorylated histone H3 (Ser10) level at 5 uM after 24 hrs by immunoblot analysis relative to control
Type: functional
PROPERTY_LABEL: fold change (FC)
// return just the number, without any unit appended

fold change (FC) for hTERT-BJ with input N#CC(Cc1cccc2cnccc12)c1c[nH]c2ccccc12 (stereo unspecified) equals 1.2
